Values from the supplement of paper PMC10724198

Tested on: Saccharomyces cerevisiae
Assay: protein stability index of tFT-peptide fusion (C-terminal peptide) (PSI (0-1 scale)); higher = more stable (slower turnover)
Conditions: genetic background: das1 deletion; temperature: 37 C
reportedProperty: protein stability index
The response must contain the number and no unit.

Reference set (4 entries):
constructSequence | protein stability index
VSLIYKTIKNRV | 0.726
IFFYQLYVDRLC | 0.412
RLPSSNVRYWVS | 0.751
HRFCAPSLSASD | 0.729

Consider now this further sequence.
Give the reported protein stability index for SLRSRSLRCRLS (system: Saccharomyces cerevisiae).
0.749

###

System: Saccharomyces cerevisiae
Assay: protein stability index of tFT-peptide fusion (C-terminal peptide) (PSI (0-1 scale)); higher = more stable (slower turnover)
Details: genetic background: wild type; temperature: 30 C
Some sequences, each annotated with its measured protein stability index.
Just the number, please.

constructSequence | protein stability index
VKIATSILGKKL [PGS1 C-terminal 12 aa] | 0.687

Which protein stability index is reported for this sequence? VVAQKPKLPYTK [YBR225W C-terminal 12 aa]
0.725

Same read-out for TREPISYKLDIQ [ERO1 C-terminal 12 aa] ?
0.67

And for WQTLVMILQESG [NPL4 C-terminal 12 aa] ?
0.444
